For each entry below, report its EC50 value.
- Measurement target: T1, ZIKV VLP (zika virus like particle, isolate Z1106033) (Zika virus isolate Z1106033 (Suriname, …, UniProt A0A024B7W1 123-794))
- T1 construct: also called zika VLP; ZIKV VLPs
Give bare numbers, in µg/mL.

See these solved cases before continuing.
Notebook: Anti-ZIKV #5 (Clone 306-2) (antibody, V domains shown) VH: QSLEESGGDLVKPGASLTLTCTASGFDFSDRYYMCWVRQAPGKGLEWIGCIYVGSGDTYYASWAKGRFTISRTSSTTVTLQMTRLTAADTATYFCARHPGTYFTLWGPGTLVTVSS VL: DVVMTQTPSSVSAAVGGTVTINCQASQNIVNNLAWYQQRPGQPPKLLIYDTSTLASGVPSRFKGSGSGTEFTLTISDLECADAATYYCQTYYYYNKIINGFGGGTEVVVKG , EC50 read as 0.066

Notebook: Anti-ZIKV #7 (IgG2a kappa, Clone ZKA-64) (antibody, V domains shown) VH: QVQLVQSGAEVKKPGASVKVSCKASGYTFTGYHIDWVRQARGQGLEWMGRINPNSGGTNYAQKFQGRVTMTRDTSISTAYMQLSRLRSDDSAVYYCARMSSSIWGFDHWGQGTLVTVSS VL: EIVMTQSPATLSVSPGERATLSCRASQSVLINLAWYQQKPGQAPRLLIYGASSRATGIPARFSGSGSGTEFTLTISSLQSEDFAVYYCQQYNDWPPITFGQGTRLEIK , EC50 read as 0.423

Notebook: Anti-ZIKV #6 (IgG2c kappa, Clone ZV-67) (antibody, V domains shown) VH: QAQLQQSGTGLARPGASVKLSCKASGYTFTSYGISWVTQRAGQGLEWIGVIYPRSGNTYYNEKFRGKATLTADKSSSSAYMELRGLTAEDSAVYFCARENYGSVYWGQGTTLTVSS VL: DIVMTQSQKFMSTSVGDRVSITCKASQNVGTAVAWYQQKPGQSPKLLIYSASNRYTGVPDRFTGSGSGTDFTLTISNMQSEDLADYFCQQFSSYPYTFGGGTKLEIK , EC50 read as 0.134

Notebook: Anti-ZIKV #2 (Clone 242-3) (antibody, V domains shown) VH: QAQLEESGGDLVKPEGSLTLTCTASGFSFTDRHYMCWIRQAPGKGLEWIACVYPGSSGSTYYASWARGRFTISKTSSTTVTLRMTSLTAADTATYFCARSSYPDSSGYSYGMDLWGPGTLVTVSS VL: DIVMTQTPASVEAAVGGTVTIKCQASQNINSNLAWYQQKPGQRPKFLMYLTSKLASGVPSRFRGSGSGTQFTLTISDLECADAATYYCQTYYDISNYGYAFGGGTEVVVKG , EC50 read as 0.044

Further cases:
Notebook: Anti-ZIKV #3 (Clone 270-12) (antibody, V domains shown) VH: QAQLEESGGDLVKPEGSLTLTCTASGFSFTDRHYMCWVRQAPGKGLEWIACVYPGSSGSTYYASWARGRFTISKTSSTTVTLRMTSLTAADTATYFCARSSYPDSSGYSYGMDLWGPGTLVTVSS VL: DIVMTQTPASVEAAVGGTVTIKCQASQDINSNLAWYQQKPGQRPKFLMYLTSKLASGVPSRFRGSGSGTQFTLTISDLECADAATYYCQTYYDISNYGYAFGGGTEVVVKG , EC50 read as 0.061
